experiment summary: in vitro
condition parameters: human, hela cells, % viability
readout kind: viability at 28.5 h, 10 µM (%)
Write the answer as a number in %, unit excluded.

Which viability at 28.5 h, 10 µM reading was recorded for the compound COCC(=O)N1CCc2cc(-c3cn4ccccc4n3)ccc21 ?
81.9

What value of measured viability at 28.5 h, 10 µM is listed for COc1cc(CN2CCC3(CC2)CN(C(=O)CO)c2ccccc23)cc(OC)c1OC ?
94

Returns the measured viability at 28.5 h, 10 µM for the input compound. Input: CC(C)C(NS(=O)(=O)c1ccc(I)cc1)C(=O)O (stereo not shown)
106

Record request: viability at 28.5 h, 10 µM value, item O=C(CSc1ncccc1C(=O)O)Nc1ccc(Oc2ccccc2)cc1
106

Entry O=C(O)c1cccc(-n2nnnc2SCc2ccccn2)c1 has what viability at 28.5 h, 10 µM?
115
